Test Target: Microsomal triglyceride transfer protein (MTP) from bovine liver (Bos taurus, UniProt P55156)
Sequence (P55156 12-887): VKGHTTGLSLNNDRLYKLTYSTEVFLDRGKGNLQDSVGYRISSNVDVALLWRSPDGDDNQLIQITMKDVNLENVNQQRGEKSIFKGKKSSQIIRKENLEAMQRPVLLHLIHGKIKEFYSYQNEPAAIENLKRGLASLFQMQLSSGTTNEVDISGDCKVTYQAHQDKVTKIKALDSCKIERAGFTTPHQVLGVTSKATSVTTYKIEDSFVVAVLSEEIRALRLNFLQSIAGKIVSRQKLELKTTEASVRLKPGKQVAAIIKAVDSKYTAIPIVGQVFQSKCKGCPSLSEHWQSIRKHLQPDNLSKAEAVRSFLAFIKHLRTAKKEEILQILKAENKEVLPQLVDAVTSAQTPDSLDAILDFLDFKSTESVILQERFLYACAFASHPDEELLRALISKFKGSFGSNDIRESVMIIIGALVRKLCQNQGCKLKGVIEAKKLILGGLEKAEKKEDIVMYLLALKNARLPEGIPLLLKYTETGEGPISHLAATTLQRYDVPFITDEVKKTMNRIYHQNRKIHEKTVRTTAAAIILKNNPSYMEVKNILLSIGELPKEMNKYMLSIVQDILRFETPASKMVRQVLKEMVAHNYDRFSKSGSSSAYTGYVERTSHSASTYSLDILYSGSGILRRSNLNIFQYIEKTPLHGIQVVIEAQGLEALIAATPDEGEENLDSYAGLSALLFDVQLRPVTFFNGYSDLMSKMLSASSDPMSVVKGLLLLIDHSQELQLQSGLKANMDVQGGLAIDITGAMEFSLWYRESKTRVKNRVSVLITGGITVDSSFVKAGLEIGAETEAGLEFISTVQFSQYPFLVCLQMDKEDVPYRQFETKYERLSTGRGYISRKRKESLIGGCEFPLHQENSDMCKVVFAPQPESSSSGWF
Sequence (P05307 21-510 partner): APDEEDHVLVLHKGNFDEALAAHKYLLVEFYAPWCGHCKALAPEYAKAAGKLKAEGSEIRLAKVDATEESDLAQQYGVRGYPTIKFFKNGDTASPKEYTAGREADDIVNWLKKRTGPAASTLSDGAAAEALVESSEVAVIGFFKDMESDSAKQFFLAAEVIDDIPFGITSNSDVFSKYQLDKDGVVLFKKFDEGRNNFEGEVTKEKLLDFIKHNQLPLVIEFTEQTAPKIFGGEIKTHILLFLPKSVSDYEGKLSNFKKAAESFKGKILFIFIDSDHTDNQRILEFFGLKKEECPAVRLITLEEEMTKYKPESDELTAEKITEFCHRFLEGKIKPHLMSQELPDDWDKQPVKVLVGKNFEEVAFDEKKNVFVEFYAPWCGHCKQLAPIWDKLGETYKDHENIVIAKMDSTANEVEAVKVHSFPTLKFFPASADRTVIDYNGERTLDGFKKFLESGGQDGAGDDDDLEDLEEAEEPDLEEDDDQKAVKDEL
Test Readout: IC50

Worked examples follow.
CCOC(=O)C(COC(=O)Oc1ccc2c(c1)CCN2C(=O)c1ccccc1-c1ccc(C(F)(F)F)cc1)(C(=O)OCC)c1ccccc1: 0.01 to 0.1 µM
CCOC(=O)C(COC(=O)Oc1ccc(NC(=O)c2ccccc2-c2ccc(C(F)(F)F)cc2)c(C(=O)N(C)C)c1)(C(=O)OCC)c1ccccn1: < 0.01 µM
CCNC(=O)C(CCCCC(=O)Oc1c(F)cc(NC(=O)c2ccccc2-c2ccc(C(F)(F)F)cc2)c(C(=O)N(C)C)c1F)(C(=O)NCC)c1cccs1: 0.1 to 1 µM
CCOC(=O)C(COC(=O)Oc1ccc(NC(=O)c2ccccc2-c2ccc(C(F)(F)F)cc2)c(C(=O)N2CCCC2)c1)(C(=O)OCC)c1ccccc1: < 0.01 µM
CCOC(=O)C(CCC(=O)OCc1ccc(NC(=O)c2ccccc2-c2ccc(C(F)(F)F)cc2)c(C(=O)N(C)C)c1)(C(=O)OCC)c1ccccc1: < 0.01 µM
CCOC(=O)C(COC(=O)Oc1c(F)cc(NC(=O)c2ccccc2-c2ccc(C(F)(F)F)cc2)cc1F)(C(=O)OCC)c1cccs1: < 0.01 µM

Query block: Form field: reported IC50 of CCOC(=O)C(COC(=O)Cc1ccc(NC(=O)c2ccc(C)cc2-c2ccc(C(F)(F)F)cc2)c(OC(=O)CC)c1)(C(=O)OCC)c1ccccc1
Result block: < 0.01 µM

Query block: Now give it for CCOC(=O)C(COC(=O)Oc1c(F)cc(NC(=O)c2ccc(OC)cc2-c2ccc(C(F)(F)F)cc2)c(C(=O)N(C)C)c1F)(C(=O)OCC)c1cccs1 too.
Result block: 0.01 to 0.1 µM

Query block: Now give it for CCOC(=O)C(COC(=O)Oc1c(F)cc(NC(=O)c2ccccc2-c2ccc(C(F)(F)F)c(F)c2)c(C(=O)N(C)C)c1F)(C(=O)OCC)c1cccs1 too.
Result block: < 0.01 µM

Query block: Now give it for CCOC(=O)C(CCC(=O)Oc1ccc(NC(=O)c2ccccc2-c2ccc(C(F)(F)F)cc2)c(C(=O)N(C)C)c1)(C(=O)OCC)c1ccccc1 too.
Result block: < 0.01 µM

Query block: Now give it for CCOC(=O)C(COC(=O)Oc1c(F)cc(NC(=O)c2ccccc2-c2ccc(C(F)(F)F)cc2)c(C(=O)N(C)CCOC)c1F)(C(=O)OCC)c1cccs1 too.
Result block: < 0.01 µM

Query block: Now give it for CCNC(=O)C(CCCC(=O)Oc1c(F)cc(NC(=O)c2ccccc2-c2ccc(C(F)(F)F)cc2)c(C(=O)N(C)C)c1F)(C(=O)NCC)c1cccs1 too.
Result block: 0.01 to 0.1 µM

* * *

Test Target: Microsomal triglyceride transfer protein (MTP) from bovine liver (Bos taurus)
Sequence (P55156 12-887): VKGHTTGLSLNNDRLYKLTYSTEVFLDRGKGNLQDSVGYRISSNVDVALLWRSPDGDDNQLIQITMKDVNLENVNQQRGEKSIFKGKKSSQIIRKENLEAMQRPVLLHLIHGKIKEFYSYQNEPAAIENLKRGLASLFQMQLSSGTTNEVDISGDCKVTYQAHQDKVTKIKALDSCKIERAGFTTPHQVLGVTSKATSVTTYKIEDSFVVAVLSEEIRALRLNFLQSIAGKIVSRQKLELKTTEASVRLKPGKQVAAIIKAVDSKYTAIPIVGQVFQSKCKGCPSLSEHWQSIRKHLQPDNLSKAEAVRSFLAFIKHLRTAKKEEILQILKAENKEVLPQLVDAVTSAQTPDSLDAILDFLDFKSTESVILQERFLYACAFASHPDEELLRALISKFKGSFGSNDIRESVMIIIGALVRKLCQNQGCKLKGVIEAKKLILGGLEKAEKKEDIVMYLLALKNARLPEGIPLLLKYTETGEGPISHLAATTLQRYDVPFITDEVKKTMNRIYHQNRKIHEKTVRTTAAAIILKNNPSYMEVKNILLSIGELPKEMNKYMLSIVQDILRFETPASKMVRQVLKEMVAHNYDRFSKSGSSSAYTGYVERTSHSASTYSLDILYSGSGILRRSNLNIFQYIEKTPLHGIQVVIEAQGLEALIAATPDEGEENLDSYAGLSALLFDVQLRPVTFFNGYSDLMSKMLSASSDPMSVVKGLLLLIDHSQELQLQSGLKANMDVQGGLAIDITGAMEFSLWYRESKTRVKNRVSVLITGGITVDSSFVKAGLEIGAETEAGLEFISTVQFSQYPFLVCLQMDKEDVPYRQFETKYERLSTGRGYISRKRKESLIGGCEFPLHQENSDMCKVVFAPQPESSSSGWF
Sequence (P05307 21-510 partner): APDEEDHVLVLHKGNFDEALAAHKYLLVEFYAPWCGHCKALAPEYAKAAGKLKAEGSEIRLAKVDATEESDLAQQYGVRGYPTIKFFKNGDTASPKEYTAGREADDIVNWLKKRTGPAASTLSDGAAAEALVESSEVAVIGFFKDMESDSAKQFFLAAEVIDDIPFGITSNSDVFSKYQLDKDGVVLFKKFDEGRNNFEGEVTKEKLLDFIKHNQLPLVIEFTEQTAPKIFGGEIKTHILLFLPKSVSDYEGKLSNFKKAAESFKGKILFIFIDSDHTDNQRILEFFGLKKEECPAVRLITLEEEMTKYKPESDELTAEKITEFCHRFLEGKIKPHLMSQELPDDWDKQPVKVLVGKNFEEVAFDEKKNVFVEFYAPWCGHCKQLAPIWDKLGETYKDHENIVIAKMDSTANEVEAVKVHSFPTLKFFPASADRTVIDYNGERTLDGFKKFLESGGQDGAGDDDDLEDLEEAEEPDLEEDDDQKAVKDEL
Recorded IC50, one value per entry.

Worked examples follow.
CCOC(=O)C(CC(=O)OCc1ccc(NC(=O)c2ccccc2-c2ccc(C(F)(F)F)cc2)c(C(=O)N(C)C)c1)(C(=O)OCC)c1ccccn1: < 10 nM
CCOC(=O)C(COC(=O)Oc1c(F)cc(NC(=O)c2ccccc2-c2ccc(C(F)(F)F)cc2)c(C(=O)N(C)C)c1F)(C(=O)OCC)c1ccccc1: 10 to 100 nM
CCOC(=O)C(CCC(=O)Oc1ccc(N(C)C(=O)c2ccccc2-c2ccc(C(F)(F)F)cc2)c(C(=O)N(C)C)c1)(C(=O)OCC)c1ccccc1: < 10 nM
CCOC(=O)C(CCC(=O)Oc1c(F)cc(NC(=O)c2ccccc2-c2ccc(C(F)(F)F)cc2)c(C(=O)NC)c1F)(C(=O)OCC)c1ccccc1: < 10 nM
CCOC(=O)C(COC(=O)Oc1c(F)cc(NC(=O)c2c(C)cccc2-c2ccc(C(F)(F)F)cc2)c(C(=O)N(C)C)c1F)(C(=O)OCC)c1cccs1: < 10 nM

Query block: Form field: reported IC50 of CCNC(=O)C(COCC(=O)OCc1ccc(NC(=O)c2ccccc2-c2ccc(C(F)(F)F)cc2)c(C(=O)N(C)C)c1)(C(=O)NCC)c1ccccc1
Result block: < 10 nM

Query block: Now give it for CCOC(=O)C(COC(=O)Oc1c(F)cc(NC(=O)c2ccccc2-c2ccc(C(F)(F)F)cc2)c(OC(=O)N(C)C)c1F)(C(=O)OCC)c1cccs1 too.
Result block: 10 to 100 nM

Query block: Now give it for CCOC(=O)C(COC(=O)Oc1c(F)cc(NC(=O)c2ccccc2-c2ccc(C(F)(F)F)cc2)c(C(=O)N(C)C)c1F)(C(=O)OCC)c1nccs1 too.
Result block: 10 to 100 nM

Query block: Now give it for CCOC(=O)C(COC(=O)Oc1ccc(NC(=O)c2ccccc2-c2ccc(C(F)(F)F)cc2)c(C(=O)N(C)C)c1)(C(=O)OCC)c1cccs1 too.
Result block: < 10 nM

Query block: Now give it for CCOC(=O)C(COC(=O)Oc1c(F)cc(NC(=O)c2ccc(C(F)(F)F)cc2-c2ccc(C(F)(F)F)cc2)c(C(=O)N(C)C)c1F)(C(=O)OCC)c1cccs1 too.
Result block: < 10 nM

Query block: Now give it for CCOC(=O)C(COC(=O)Oc1c(F)cc(NC(=O)c2ccccc2-c2ccc(C(F)(F)F)cc2)c(C(=O)N(C)CCO)c1F)(C(=O)OCC)c1cccs1 too.
Result block: 100 to 1000 nM

Query block: Now give it for CCOC(=O)C(COC(=O)Oc1c(F)cc(NC(=O)c2cc(C)ccc2-c2ccc(C(F)(F)F)cc2)c(C(=O)N(C)C)c1F)(C(=O)OCC)c1cccs1 too.
Result block: 10 to 100 nM
